Biological target: human CatL (Homo sapiens (Human), UniProt P07711)
Sequence (P07711 whole entry, looked up): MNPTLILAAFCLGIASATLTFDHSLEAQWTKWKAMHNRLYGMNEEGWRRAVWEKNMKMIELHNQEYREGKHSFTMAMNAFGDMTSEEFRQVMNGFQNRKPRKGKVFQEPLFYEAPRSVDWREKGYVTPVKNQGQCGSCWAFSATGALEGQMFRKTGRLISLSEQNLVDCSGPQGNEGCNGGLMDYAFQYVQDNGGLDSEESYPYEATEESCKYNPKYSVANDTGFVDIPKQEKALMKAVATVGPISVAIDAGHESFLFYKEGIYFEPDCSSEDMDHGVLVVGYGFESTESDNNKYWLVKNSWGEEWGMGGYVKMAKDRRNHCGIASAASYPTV
Test: Human Cathepsin L (CatL) enzymatic assay
Type: biochemical
Conditions: CatL 0.05 nM, substrate 500 nM, pH 5.5; read-out: Enzymatic inhibition IC50
endpoint-label: log10(IC50) (log10 of the value in nM)
Please be aware that the numbers have been log10-transformed from IC50 in nM.

Past entries and their recorded results:
N#CC1(NC(=O)[C@H](Cc2nc3cccc(Cl)c3o2)NC(=O)c2cccc(Cl)c2)CC1
0.85
CN1CCN(c2ccc3nc(C[C@H](NC(=O)c4cc(C(C)(C)C)nn4C4CC4)C(=O)NC4(C#N)CC4)oc3c2)CC1
0.15
N#CC1(NC(=O)[C@H](Cc2nc3cc(C(F)(F)F)ccc3o2)NC(=O)c2cccc(Cl)c2)CC1
1.71
Cc1nn(C2CC2)cc1C(=O)N[C@@H](Cc1nc2ccccc2o1)C(=O)NC1(C#N)CC1
2.14
CN(C)c1ccc(-c2ccc3nc(C[C@H](NC(=O)c4cc(C5(C)CC5)nn4C4CC4)C(=O)NC4(C#N)CC4)oc3c2)cn1
0.20

--- query ---
Entry N#CC1(NC(=O)[C@H](Cc2nc3ccc(C4=CCN(CC(F)F)CC4)cc3o2)NC(=O)c2cccc(Cl)c2)CC1 , log10(IC50) reported as 1.09

---

Molecular target: human CatL (Homo sapiens (Human))
Test: Human Cathepsin L (CatL) enzymatic assay
Format: biochemical
Settings: CatL 0.05 nM, substrate 500 nM, pH 5.5; read-out: Enzymatic inhibition IC50
Experimental: Human Cathepsin L (CatL) Enzymatic Assay 60 μL of the compounds were added to 384-well dilution plate. The compound solution was diluted for 1:3 in succession in DMSO for each column for 10 pts. […] Reading Ex370 nm and Em460 nm fluorescence signals with BMG CLARIO Star Plusaucu. Percent inhibition for each compound was calculated and IC50 (half maximal inhibitory concentration) was fitted from non-linear regression by XLfit 5.5.0.
pIC50: −log10 of the molar value.
YES means recorded pIC50 is 8 or above; NO means it is below 8.

N#CC1(NC(=O)[C@H](Cc2nc3cccc(C(F)(F)F)c3o2)NC(=O)c2cccc(Cl)c2)CC1 [Compound 12]
NO
N#CC1(NC(=O)[C@H](Cc2nc3c(Cl)cccc3o2)NC(=O)c2cccc(Cl)c2)CC1 [Compound 7]
NO
CC(C)(C)c1cc(C(=O)N[C@@H](Cc2nc3ccc(C4=CCN(CC(F)F)CC4)cc3o2)C(=O)NC2(C#N)CC2)n(C2CC2)n1 [Compound 29]
YES

Could you verify whether the entry CC(C)(C)c1cc(C(=O)N[C@@H](Cc2nc3ccc(-c4ccc(N)nc4)cc3o2)C(=O)NC2(C#N)CC2)n(C2CC2)n1 [Compound 34] shows pIC50 of no less than 8? YES

Could you verify whether the entry CC1(c2cc(C(=O)N[C@@H](Cc3nc4ccc(-c5ccnc(C6CC6)c5)cc4o3)C(=O)NC3(C#N)CC3)n(C3CC3)n2)CC1 [Compound 48] shows pIC50 of no less than 8? YES

Could you verify whether the entry CN1CCN(c2ccc3nc(C[C@H](NC(=O)c4cc(C5CC5)nn4C4CC4)C(=O)NCC#N)oc3c2)CC1 [Compound 25] shows pIC50 of no less than 8? NO

Could you verify whether the entry CC(C)(C)c1cc(C(=O)N[C@@H](Cc2nc3cccc(Cl)c3o2)C(=O)NC2(C#N)CC2)n(C2CC2)n1 [Compound 20] shows pIC50 of no less than 8? YES

Could you verify whether the entry CC(C)(C)c1cc(C(=O)N[C@@H](Cc2nc3cc(F)cc(Cl)c3o2)C(=O)NC2(C#N)CC2)n(C2COC2)n1 [Compound 22] shows pIC50 of no less than 8? YES

Could you verify whether the entry Cc1cc(-c2ccc3nc(C[C@H](NS(=O)(=O)c4cccc(Cl)c4)C(=O)NCC#N)oc3c2)ccn1 [Compound 37] shows pIC50 of no less than 8? NO

Could you verify whether the entry Cc1cc(-c2ccc3nc(C[C@H](NS(=O)(=O)c4cccc(Br)c4)C(=O)NCC#N)oc3c2)ccn1 [Compound 36] shows pIC50 of no less than 8? NO

Could you verify whether the entry N#CCNC(=O)[C@H](Cc1nc2ccccc2o1)NC(=O)c1cc(C2CC2)nn1C1CC1 [Compound 15] shows pIC50 of no less than 8? NO

Could you verify whether the entry COCCN1CC=C(c2ccc3nc(C[C@H](NC(=O)c4cc(C(C)(C)C)nn4C4CC4)C(=O)NCC#N)oc3c2)CC1 [Compound 45] shows pIC50 of no less than 8? YES

Could you verify whether the entry Cc1cccc(C(=O)N[C@@H](Cc2nc3ccccc3o2)C(=O)NC2(C#N)CC2)n1 [Compound 14] shows pIC50 of no less than 8? NO

---

Test system: SARS-CoV-2 PsVs
Assay: microbe, parasite or virus in culture
Assay type: cell-based
Conditions: Severe acute respiratory syndrome coronavirus 2, Vero C1008, 24 h, read-out: % Infection rate at 5 uM
Quick list: activity at 5 µM per entry.
Kindly provide the numeric value in % only, without the unit symbol.

N#CC1(NC(=O)[C@H](Cc2nc3c(-c4cn[nH]c4)cccc3o2)NC(=O)c2cccc(Cl)c2)CC1 [Compound 23]
98
CC(C)(C)c1cc(C(=O)N[C@@H](Cc2nc3ccc(Br)cc3o2)C(=O)NC2(C#N)CC2)n(C2CC2)n1 [Compound 33]
5.9
CC1(c2cc(C(=O)N[C@@H](Cc3nc4ccc(-c5ccnc(C6CC6)c5)cc4o3)C(=O)NC3(C#N)CC3)n(C3CC3)n2)CC1 [Compound 48]
22.4
Cc1cc(-c2ccc3nc(C[C@H](NS(=O)(=O)c4cccc(Cl)c4)C(=O)NCC#N)oc3c2)ccn1 [Compound 37]
104
CC1(c2cc(C(=O)N[C@@H](Cc3nc4ccc(-c5ccnc(C(F)F)c5)cc4o3)C(=O)NC3(C#N)CC3)n(C3CC3)n2)CC1 [Compound 47]
15.9
N#CC1(NC(=O)[C@H](Cc2nc3c(Cl)cccc3o2)NC(=O)c2cccc(Cl)c2)CC1 [Compound 7]
48
CN1CCN(c2ccc3nc(C[C@H](NC(=O)c4cccc(Cl)c4)C(=O)NC4(C#N)CC4)oc3c2)CC1 [Compound 24]
2
Cc1cccc(C(=O)N[C@@H](Cc2nc3ccccc3o2)C(=O)NC2(C#N)CC2)n1 [Compound 14]
97
CN1CCN(c2ccc3nc(C[C@H](NC(=O)c4cccc(Cl)c4)C(=O)NC4(C#N)CC4)oc3c2)C(=O)C1 [Compound 30]
101
CC(C)(C)c1cc(C(=O)N[C@@H](Cc2nc3cccc(Cl)c3o2)C(=O)NC2(C#N)CC2)n(C2CC2)n1 [Compound 20]
6.3

Entry CCNc1ccc(-c2ccc3nc(C[C@H](NC(=O)c4cc(C5(C)CC5)nn4C4CC4)C(=O)NC4(C#N)CC4)oc3c2)cn1 [Compound 43] , activity at 5 µM reported as 0.8

Entry Cc1cccc(-c2ccc3nc(C[C@H](NC(=O)c4cc(C5(C)CC5)nn4C4CC4)C(=O)NC4(C#N)CC4)oc3c2)n1 [Compound 44] , activity at 5 µM reported as 55.5

Entry CC(C)(C)c1cc(C(=O)N[C@@H](Cc2nc3cc(F)cc(Cl)c3o2)C(=O)NC2(C#N)CC2)n(C2CC2)n1 [Compound 21] , activity at 5 µM reported as 12

Entry CC(C)(C)c1cc(C(=O)N[C@@H](Cc2nc3ccc(-c4ccc(N)nc4)cc3o2)C(=O)NC2(C#N)CC2)n(C2CC2)n1 [Compound 34] , activity at 5 µM reported as 0.9

---

Tested on: SARS-CoV-2 PsVs
Assay: microbe, parasite or virus in culture
Type: cell-based
Settings: Severe acute respiratory syndrome coronavirus 2, Vero C1008, 24 h, read-out: % Infection rate at 500 nM
Quick list: activity at 0.5 µM per entry.
Kindly provide the numeric value in % only, without the unit symbol.

Past entries and their recorded results:
Cc1ccc(-c2ccc3nc(C[C@H](NC(=O)c4cc(C5(C)CC5)nn4C4CC4)C(=O)NC4(C#N)CC4)oc3c2)cn1
34
CC(C)(C)c1cc(C(=O)N[C@@H](Cc2nc3ccc(C4=CCN(CC(F)F)CC4)cc3o2)C(=O)NC2(C#N)CC2)n(C2CC2)n1
7.3
Cc1cccc(C(=O)N[C@@H](Cc2nc3ccccc3o2)C(=O)NC2(C#N)CC2)n1
103
N#CC1(NC(=O)[C@H](Cc2nc3ccccc3o2)NC(=O)c2cn(C3CC3)nc2C(F)(F)F)CC1
92
CC(=O)Nc1ccc(-c2ccc3nc(C[C@H](NC(=O)c4cc(C5(C)CC5)nn4C4CC4)C(=O)NC4(C#N)CC4)oc3c2)cn1
90

Entry Cc1cccc(-c2ccc3nc(C[C@H](NC(=O)c4cc(C5(C)CC5)nn4C4CC4)C(=O)NC4(C#N)CC4)oc3c2)n1 , activity at 0.5 µM reported as 82

Entry CC(C)(C)c1cc(C(=O)N[C@@H](Cc2nc3cc(F)cc(Cl)c3o2)C(=O)NC2(C#N)CC2)n(C2COC2)n1 , activity at 0.5 µM reported as 33
